We begin with a simple list: items and their reported EC50.
system: HT-29 colorectal carcinoma; assay: Cytotoxicity assay (monolayer), HT-29; type: cell-based; settings: HT29, ML (monolayer); read-out: HT29 (EC50 Ave) ML;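 also: monolayer cultures tested in triplicate, compound exposure for three days against DMSO vehicle controls, EC50 fitted from dose-response curves and averaged across all tests and lots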
Primed or numbered codes have the meaning given here. * marks the point of attachment. 10Ca‑PXL″ = paclitaxel attached at C10 via carbamate; PEG(13) = PEG13 linker; Piv = CC(C)(C)C(=O)*; OBn = c1ccc(CO*)cc1

[[record]]
substance = "BOC-E(Bzl)YIFGSFK(BOC)-PEG(11)-3Am-VBL"
readout = "EC50"
experimental_value = "> 100 nM"

[[record]]
substance = "Pv-GRPRTSSFAE(Bzl)G-PEG(13)-10Ca-PXL (Piv-GRPRTSSFAE(OBn)G-{PEG(13)-10Ca‑PXL″})"
readout = "EC50"
experimental_value = "> 100 nM"


So what does the record say about EC50 for CBz-YIFGSFK-PEG(11)-3Am-VBL (N-CBz; PEG(11) linker; vinblastine conjugate) ?
> 100 nM

So what does the record say about EC50 for Ac-RPRTSSF-PEG(13)-10Ca-PXL (N-acetyl; PEG(13) linker; paclitaxel conjugate) ?
> 100 nM

So what does the record say about EC50 for BOC-GIYWHHY-PEG(11)-3Am-VBL (N-BOC; PEG(11) linker; vinblastine conjugate) ?
> 100 nM

So what does the record say about EC50 for Pv-E(DMAB)YIYGSFR-PEG(11)-3Am-VBL (EYIYGSFR) ?
> 100 nM

So what does the record say about EC50 for Ac-EYIyGSFK-PEG(13)-10Ca-PXL (EYIYGSFK; not fully specified) ?
> 100 nM

So what does the record say about EC50 for CBz-E(Bzl)YIFGSFK-PEG(11)-3Am-VBL (CBz-Glu(Bzl) N-terminal; PEG(11); vinblastine conjugate) ?
> 100 nM

---

assay: Serum stability in RPMI1640 medium containing 10% fetal bovine serum; assay type: in vitro ADME; conditions: bovine, read-out: T½ (converted)
READOUT: half-life at 10 μM

Solved cases (2 shown):
[[record]]
compound = "CC[C@H](C)[C@H](NC(=O)[C@H](Cc1ccc(O)cc1)NC(=O)C(C)(C)C)C(=O)N[C@@H](Cc1ccc(O)cc1)C(=O)NCC(=O)N[C@@H](CO)C(=O)N[C@@H](Cc1ccccc1)C(=O)N[C@@H](CCCNC(=N)N)C(=O)NCCCOCCOCCOCCCNC(=O)O[C@H]1C(=O)[C@@]2(C)[C@H]([C@H](OC(=O)c3ccccc3)[C@]3(O)C[C@H](OC(=O)[C@H](O)[C@@H](NC(=O)c4ccccc4)c4ccccc4)C(C)=C1C3(C)C)[C@]1(OC(C)=O)CO[C@@H]1C[C@@H]2O [Pv-YIYGSFR-PEG(13)-10Ca-PXL]"
experimental_value = "> 72 h"

[[record]]
compound = "CC[C@]1(O)C[C@@H]2CN(CCc3c([nH]c4ccccc34)[C@@](C(=O)OC)(c3cc4c(cc3OC)N(C)[C@H]3[C@@](O)(C(=O)OC)[C@H](OC(C)=O)[C@]5(CC)C=CCN6CC[C@]43[C@@H]65)C2)C1 [Vinblastine, reference compound]"
experimental_value = "> 72 h"


Field: next compound
So what does the record say about half-life at 10 μM for CC[C@H](C)[C@H](NC(=O)[C@H](Cc1ccc(O)cc1)NC(=O)OCc1ccccc1)C(=O)N[C@@H](Cc1ccc(O)cc1)C(=O)NCC(=O)N[C@@H](CO)C(=O)N[C@@H](Cc1ccccc1)C(=O)N[C@@H](CCCCN)C(=O)NCCOCCOCCOCCNC(=O)[C@@]1(O)[C@H](O)[C@]2(CC)C=CCN3CC[C@@]4(c5cc([C@@]6(C(=O)OC)C[C@@H]7CN(CCc8c6[nH]c6ccccc86)C[C@](O)(CC)C7)c(OC)cc5N(C)[C@@H]14)[C@@H]32 ?
> 72 h
